- Tested on: Vero E6 infected with SARS-CoV-2
- assay-remarks: inhibition of SARS-CoV-2 cytopathic effect; higher = more antiviral protection, active = above 15
- reported-conditions: 8.33 nM; 48 h
So I've got a bunch of molecules here, and I need their inhibition of SARS-CoV-2 cytopathic effect values.
Express it in %; write the number only.

get_value(item= `Cc1cc(C)cc(C(=O)N(C)[C@H](Cc2ccc(-c3ccccc3)cc2)C(=O)N[C@@H](Cc2c[nH]c3ccccc23)C(=O)O)c1` , readout=inhibition of SARS-CoV-2 cytopathic effect) returns 3.13

Just so you know, measured inhibition of SARS-CoV-2 cytopathic effect for COc1ccc2nc3c(c(N)c2c1)CCCC3 [7-methoxytacrine] came out at 2.7

inhibition of SARS-CoV-2 cytopathic effect measured on Nc1ccc(S(=O)(=O)Nc2cnc3ccccc3n2)cc1 [sulfaquinoxaline] = 1.74

Looking up Nc1ccc(-c2ccc3ncc4ccc(=O)n(-c5cccc(C(F)(F)F)c5)c4c3c2)cn1 [torin-2] , I see its inhibition of SARS-CoV-2 cytopathic effect listed as -0.26

Noted for Oc1cc2c(cc1O)[C@H]1c3ccccc3CN[C@@H]1CC2 (racemic) [dihydrexidine] : its inhibition of SARS-CoV-2 cytopathic effect reads -1.57

NC(=O)N1c2ccccc2CC(=O)c2ccccc21 [oxcarbazepine] has a reported inhibition of SARS-CoV-2 cytopathic effect of 3.71

// CCOC(=O)CCC(=O)O[C@H]1[C@H](O[C@@H]2[C@@H](C)[C@H](O[C@H]3C[C@@](C)(OC)[C@@H](O)[C@H](C)O3)[C@@H](C)C(=O)O[C@H](CC)[C@@](C)(O)[C@H](O)[C@@H](C)C(=O)[C@H](C)C[C@@]2(C)O)O[C@H](C)C[C@@H]1N(C)C [erythromycin-ethylsuccinate] : inhibition of SARS-CoV-2 cytopathic effect value = 0.11

Quick note, inhibition of SARS-CoV-2 cytopathic effect for COc1ccc2nc3cc(Cl)ccc3c(Nc3cc(CN4CCCC4)c(O)c(CN4CCCC4)c3)c2n1 [pyronaridine] landed at 4.56

response.value for `O=C(NCCO)c1cccc(-c2cc(Nc3ccc(OC(F)(F)F)cc3)ncn2)c1` (field: inhibition of SARS-CoV-2 cytopathic effect) = 1.06

Reported inhibition of SARS-CoV-2 cytopathic effect of CN1CCC(=C2c3ccccc3CC(=O)c3sccc32)CC1 [ketotifen] : 4.8

The molecule identified as `O[C@@](Cc1nc(CC2(C(F)(F)F)CC2)c[nH]1)(c1ccc(-n2cccn2)cc1)C(F)(F)F` registered its inhibition of SARS-CoV-2 cytopathic effect at -0.02

What the record says about Nc1ccc(O)c(C(=O)O)c1 [mesalazine] : inhibition of SARS-CoV-2 cytopathic effect is -2.08

inhibition of SARS-CoV-2 cytopathic effect measured on CC(=O)N[C@@H](Cc1ccc(O)cc1)C(=O)O [N-acetyl-tyrosine] = 1.2

inhibition of SARS-CoV-2 cytopathic effect measured on `Cc1csc(S(=O)(=O)N(CC(C)C)c2cc3c(cc2OCc2ccc(C(=O)O)cc2)CCC3)n1` = -1.9

Record Oc1cc2c(cc1O)CN(C(=S)NCCc1ccc(Cl)cc1)CCC2 [capsazepine] , field inhibition of SARS-CoV-2 cytopathic effect: -2.95

Per the record, `C[C@@]1(O)[C@H](O)[C@@H](CO)O[C@H]1n1cnc2c(NC3CCCC3)nc(Cl)nc21` has inhibition of SARS-CoV-2 cytopathic effect of 2.06

Looking up CN(C)CCc1c[nH]c2ccc(CS(=O)(=O)N3CCCC3)cc12 [almotriptan] , I found its inhibition of SARS-CoV-2 cytopathic effect recorded as 1.33

The molecule listed as c1ccc(CC2=NCCN2)cc1 [tolazoline] has a reported inhibition of SARS-CoV-2 cytopathic effect of 0.92

// CCOC(=O)CSCCC1NC(C(=O)O)CS1 (stereo not drawn) [letosteine] : inhibition of SARS-CoV-2 cytopathic effect value = -0.54

Record summary for `O=c1oc(-c2ccc(C(F)(F)F)cc2)nn1Cc1cc(Cl)ccc1O` : reported inhibition of SARS-CoV-2 cytopathic effect = -1.09

Form: molecule = Cc1cc2c(C(C)C)c(O)c(O)c(C=O)c2c(O)c1-c1c(C)cc2c(C(C)C)c(O)c(O)c(C=O)c2c1O [gossypol] ; inhibition of SARS-CoV-2 cytopathic effect = -3.04

Recorded inhibition of SARS-CoV-2 cytopathic effect (molecule NCc1c[nH]c(=S)n1[C@H]1CCc2c(F)cc(F)cc2C1 [nepicastat] ): 1.63

Record summary for CC[C@H](C)C[C@H](C)CCCCCCCCC(=O)N[C@H]1C[C@@H](O)[C@@H](NCCN)NC(=O)[C@@H]2[C@@H](O)CCN2C(=O)[C@H]([C@H](O)CCN)NC(=O)[C@H]([C@H](O)[C@@H](O)c2ccc(O)cc2)NC(=O)[C@@H]2C[C@@H](O)CN2C(=O)[C@H]([C@@H](C)O)NC1=O [caspofungin] : reported inhibition of SARS-CoV-2 cytopathic effect = 0.765

Query O=c1[nH]cnc2c1cnn2[C@@H]1O[C@H](CO)[C@@H](O)[C@H]1O [allopurinol-riboside] yields inhibition of SARS-CoV-2 cytopathic effect of 0.92

Summary for this molecule, CCn1cc(C(=O)O)c(=O)c2cnc(N3CCCC3)nc21 [piromidic-acid] : inhibition of SARS-CoV-2 cytopathic effect is 1.01

inhibition of SARS-CoV-2 cytopathic effect recorded for this molecule, N#Cc1ccc2[nH]cc(CCCCN3CCN(c4ccc5oc(C(N)=O)cc5c4)CC3)c2c1 [vilazodone] , is 1.07

Value of inhibition of SARS-CoV-2 cytopathic effect reported for the molecule CN1CCN(c2c(F)cc3c(=O)c(C(=O)O)cn4c3c2SCC4)CC1 [rufloxacin] is -1.78

Form: molecule = `COc1ccc(Nc2ncnc3ccc(OC)cc23)cc1` ; inhibition of SARS-CoV-2 cytopathic effect = 6.4

inhibition of SARS-CoV-2 cytopathic effect recorded for this molecule, COc1ccc2c(c1)[C@]13CCCC[C@@H]1[C@H](C2)N(C)CC3 [dextromethorphan] , is -0.37

Input O=C1OC2(c3ccc(O)cc3Oc3cc(O)ccc32)c2ccccc21 [fluorescein] . Output inhibition of SARS-CoV-2 cytopathic effect: -9.87

molecule CC(C)(C)c1ccc(S(=O)(=O)Nc2ccc(Cl)cc2C(=O)c2cc[n+]([O-])cc2)cc1 [vercirnon] , inhibition of SARS-CoV-2 cytopathic effect observed: 1.21

// inhibition of SARS-CoV-2 cytopathic effect lookup, molecule = Clc1cccc(C(c2ccc3[nH]cnc3c2)n2ccnc2)c1 (stereo not drawn) [liarozole] , result: 3.78

For CCOC(=O)c1c(C)[nH]c2ccc3c(c12)CN1CCc2cc(OC)ccc2C1O3 (stereo not drawn) the molecule record lists inhibition of SARS-CoV-2 cytopathic effect as 2.9

----------
Exercise: for every item that follows, state its recorded inhibition of SARS-CoV-2 cytopathic effect.
- Tested on: Vero E6 infected with SARS-CoV-2
- assay-remarks: inhibition of SARS-CoV-2 cytopathic effect; higher = more antiviral protection, active = above 15
- reported-conditions: 100 nM; 48 h
Answer in %, number only, no unit symbol.

Form field inhibition of SARS-CoV-2 cytopathic effect, entry `Oc1nc(-c2ccc(C(F)(F)F)cc2)nc2c1CSCC2` : 3.97

inhibition of SARS-CoV-2 cytopathic effect for COc1cc(C(=O)NS(=O)(=O)c2ccccc2C)ccc1Cc1cn(C)c2ccc(NC(=O)OC3CCCC3)cc12 [zafirlukast] is 0.48

Lab note: CCOC(=O)[C@H](CCc1ccccc1)N[C@@H](C)C(=O)N1C(=O)N(C)C[C@H]1C(=O)O [imidapril] gave inhibition of SARS-CoV-2 cytopathic effect of 0.36

Per the records, this compound ( Cc1cc(C(C#N)c2ccc(Cl)cc2)c(Cl)cc1NC(=O)c1cc(I)cc(I)c1O (stereo not drawn) [closantel] ) has inhibition of SARS-CoV-2 cytopathic effect equal to 1.07

Record CC1CCN(C(c2ccc(F)cc2)c2ccc(C(C)C(=O)O)cc2-c2ccc(C(F)(F)F)cc2)CC1 (stereo not drawn) , field inhibition of SARS-CoV-2 cytopathic effect: -0.83

GET /value?item= NS(=O)(=O)c1cc2c(cc1Cl)NC(C1CC3C=CC1C3)NS2(=O)=O (stereo not drawn) [cyclothiazide] &field=inhibition of SARS-CoV-2 cytopathic effect returns 3.55

// recorded inhibition of SARS-CoV-2 cytopathic effect for CN(C)CCC(c1ccc(Br)cc1)c1ccccn1 (stereo not drawn) [brompheniramine] : -3.1

Reported inhibition of SARS-CoV-2 cytopathic effect of O=C(O)/C=C/c1ccc(O)cc1 [naringeninic-acid] : -12

Per the record, `CN1[C@@H]2C[C@@H](OC(=O)[C@H](CO)c3ccccc3)C[C@H]1[C@@H]1O[C@@H]12` has inhibition of SARS-CoV-2 cytopathic effect of 1.2

// inhibition of SARS-CoV-2 cytopathic effect value for CCC[C@H](N[C@@H](C)C(=O)N1[C@H](C(=O)O)C[C@@H]2CCCC[C@@H]21)C(=O)O [perindoprilat] : 3.43

Looking up CCCCCCc1ccc(O)cc1O.Nc1c2ccccc2nc2ccccc12 [acrisorcin] , I found its inhibition of SARS-CoV-2 cytopathic effect recorded as 1.22

inhibition of SARS-CoV-2 cytopathic effect recorded for this compound, `c1ccc2c(c1)CCCc1cc(NCCN3CCOCC3)nnc1-2` , is 1.8

inhibition of SARS-CoV-2 cytopathic effect recorded for this compound, CCOc1ccc(NC(C)=O)cc1 [phenacetin] , is 1.64

Per the records, this compound ( `CCCC(=O)C1(c2ccccc2)CCN(C(=O)[C@@H](Cc2ccc(OC)cc2)NC(=O)[C@@H](N)Cc2cncn2C)CC1` ) has inhibition of SARS-CoV-2 cytopathic effect equal to 0.17

// inhibition of SARS-CoV-2 cytopathic effect lookup, compound = `Cc1cc(C)c(CNC(=O)c2cc(-c3ccc(CN4CCOCC4)cc3)cc3c2cnn3C2CCCC2)c(=O)[nH]1` , result: 1.14

Lab book: inhibition of SARS-CoV-2 cytopathic effect of C=CCOc1ccccc1OCC(O)CNC(C)C (stereo not drawn) [oxprenolol] noted as -1.99

Note to self: inhibition of SARS-CoV-2 cytopathic effect recorded for CCCc1nc(C(C)(C)O)c(C(=O)O)n1Cc1ccc(-c2ccccc2-c2nnn[nH]2)cc1 [olmesartan] was 1.17

Please fill in: inhibition of SARS-CoV-2 cytopathic effect reported for C#Cc1cncc([C@@H]2CCCN2C)c1 [altinicline] = -1.9

Summary for this compound, Cc1cc2cc3c(C)cc(=O)oc3c(C)c2o1 [trioxsalen] : inhibition of SARS-CoV-2 cytopathic effect is 0.65

So, NCCS(=O)(=O)O [taurine] ? Its inhibition of SARS-CoV-2 cytopathic effect was -1.56

compound `O=C(Nc1ccc(S(=O)(=O)Nc2nccs2)cc1)C(c1ccccc1)c1ccccc1` , inhibition of SARS-CoV-2 cytopathic effect observed: 2.47

Reported inhibition of SARS-CoV-2 cytopathic effect of C/C(=C\CNc1ncnc2[nH]cnc12)CO [zeatin] : -0.97

Record summary for CCCCCCCCCCC(O)C1C=CC2C(=O)N(c3ccccc3)C(=O)C2N1Nc1ccc([N+](=O)[O-])cc1 (stereo not drawn) : reported inhibition of SARS-CoV-2 cytopathic effect = 1.56

// sample C=C1CC[C@H](O)C/C1=C/C=C1\CCC[C@]2(C)[C@@H]([C@H](C)CCCC(C)C)CC[C@@H]12 [cholecalciferol] , its inhibition of SARS-CoV-2 cytopathic effect was -1.56

Measured inhibition of SARS-CoV-2 cytopathic effect, OC(CCCN1CCCCC1)(c1ccccc1)c1ccccc1 [diphenidol] : -2.4

Just so you know, measured inhibition of SARS-CoV-2 cytopathic effect for `O=C(CCc1ccncc1)NNC(=O)N1Cc2ccccc2Oc2ccc(Cl)cc21` came out at 1.69

Looking up CCCOC(=O)c1ccc(O)cc1 [propyl 4-hydroxybenzoate] , I found its inhibition of SARS-CoV-2 cytopathic effect recorded as -0.42

Reported inhibition of SARS-CoV-2 cytopathic effect of `COc1ccc(-n2[nH]c3c4c(ncc3c2=O)CCCCC4)cc1` : -0.83

Quick note, inhibition of SARS-CoV-2 cytopathic effect for `C=CC(=O)Nc1cccc(Nc2nc(Nc3ccc(NC4CN(CCF)C4)cc3OC)ncc2C(F)(F)F)c1` landed at 7.9

Summary for this compound, C[C@H](N)[C@H](O)c1cccc(O)c1 [metaraminol] : inhibition of SARS-CoV-2 cytopathic effect is 2.34

compound `O=C(O)c1ccc(O)c2ncccc12` , inhibition of SARS-CoV-2 cytopathic effect observed: 1.3

Notebook: CCCc1ncc(C[n+]2ccccc2C)c(N)n1 [amprolium] , inhibition of SARS-CoV-2 cytopathic effect read as 4.43

inhibition of SARS-CoV-2 cytopathic effect reported for this compound O=C(NC1CCNCC1)[C@@H]1CC[C@@H]2CN1C(=O)N2OS(=O)(=O)O [relebactam] : 1.26

Short answer for Cc1ccc(-c2cc(C(F)(F)F)nn2-c2ccc(S(N)(=O)=O)cc2)cc1 [celecoxib] : inhibition of SARS-CoV-2 cytopathic effect was 1.91

Consider CC(C)C[C@H](NC(=O)[C@H](CCc1ccccc1)NC(=O)CN1CCOCC1)C(=O)N[C@@H](Cc1ccccc1)C(=O)N[C@@H](CC(C)C)C(=O)[C@@]1(C)CO1 [carfilzomib] . Its measured inhibition of SARS-CoV-2 cytopathic effect is 11.4

The measured inhibition of SARS-CoV-2 cytopathic effect associated with `CNc1nc(C)nc(N[C@H]2CCC[C@@H](C(=O)NCc3ccc(C#N)cc3C(F)(F)F)C2)n1` reads -0.92

According to the records, this compound O=C(Nc1cccc2c(=O)cc(-c3nnn[nH]3)oc12)c1ccc(OCCCCc2ccccc2)cc1 [pranlukast] displays inhibition of SARS-CoV-2 cytopathic effect of 0.47

Kindly note the recorded inhibition of SARS-CoV-2 cytopathic effect for `C/C(=N\NC(=S)N1CCC1)c1ccccn1` , which is 2.65
